Tested on: ragweed (common ragweed, Ambrosia elatior)
procedure text: Test A postemergence, ragweed
Type: in vivo
test parameters: Ambrosia artemisiifolia, post-emergence, 240 h, 31 g ai/ha, 0 to 100 scale (0 no effect, 100 complete control), read-out: Plant response rating, Ragweed
Source text: […]
measured endpoint: pest or weed control at 31 g/ha (%)
Answers are plain numbers, in %.

A selection of reference data follows.
>  <molecule>
OC1CC(CCCC(F)(F)F)c2c(Oc3ncc(Cl)cn3)cccc21 (stereo not drawn)

>  <study target>
ragweed (common ragweed, Ambrosia elatior)

>  <pest or weed control at 31 g/ha (%)>
0

$$$$
>  <molecule>
FC(F)(F)CCCC1OCCc2cccc(Oc3ncc(Cl)cn3)c21 (stereo not drawn)

>  <study target>
ragweed (common ragweed, Ambrosia elatior)

>  <pest or weed control at 31 g/ha (%)>
0

$$$$
>  <molecule>
O=C1O[C@H](CCC(F)(F)F)c2c(Oc3ncc(Cl)cn3)cccc21

>  <study target>
ragweed (common ragweed, Ambrosia elatior)

>  <pest or weed control at 31 g/ha (%)>
30

$$$$
>  <molecule>
FC(F)(F)CCC1OCCc2cccc(Oc3ncc(Cl)cn3)c21 (stereo not drawn)

>  <study target>
ragweed (common ragweed, Ambrosia elatior)

>  <pest or weed control at 31 g/ha (%)>
0

$$$$
>  <molecule>
O=C1COC(CCCC(F)(F)F)c2c(Oc3ncc(Cl)cn3)cccc21 (stereo not drawn)

>  <study target>
ragweed (common ragweed, Ambrosia elatior)

>  <pest or weed control at 31 g/ha (%)>
0

$$$$
>  <molecule>
FC(F)(F)CCCC1COc2cccc(Oc3ncc(Cl)cn3)c21 (stereo not drawn)

>  <study target>
ragweed (common ragweed, Ambrosia elatior)

>  <pest or weed control at 31 g/ha (%)>
0

$$$$

Could you report pest or weed control at 31 g/ha for every entry in the following list?
1. O=C1OCc2cccc(Oc3ncc(Cl)cn3)c2C1CCC(F)(F)F (stereo not drawn)
2. O=C1OCc2cccc(Oc3ncc(Cl)cn3)c2C1CCCCC(F)(F)F (stereo not drawn)
3. FC(F)(F)CCC1OCc2cccc(Oc3ncc(Cl)cn3)c21 (stereo not drawn)

Output:
[10, 0, 10]

----------
Kindly supply the reported pest or weed control at 125 g/ha values for the records listed here.
Tested on: kochia (Kochia scoparia)
procedure text: Test A preemergence, kochia
Format: in vivo
test parameters: Bassia scoparia, pre-emergence, 240 h, 125 g ai/ha, 0 to 100 scale (0 no effect, 100 complete control), read-out: Plant response rating, Kochia
Answers are plain numbers, in %.

A selection of reference data follows.
>  <compound>
O=C1CC(CCC(F)(F)F)c2c(Oc3ncc(Cl)cn3)cccc21 (centres unmarked) [Compound 11]

>  <study target>
kochia (Kochia scoparia)

>  <pest or weed control at 125 g/ha (%)>
20

$$$$
>  <compound>
O=C1NC(CCCC(F)(F)F)c2c(Oc3ncc(Cl)cn3)cccc21 (centres unmarked) [Compound 13]

>  <study target>
kochia (Kochia scoparia)

>  <pest or weed control at 125 g/ha (%)>
0

$$$$
>  <compound>
O=C1OC(CCCC(F)(F)F)c2c(Oc3ncc(Cl)cn3)cccc21 (centres unmarked) [Compound 1]

>  <study target>
kochia (Kochia scoparia)

>  <pest or weed control at 125 g/ha (%)>
100

$$$$

Could you report pest or weed control at 125 g/ha for every entry in the following list?
1. OC1CC(CCCC(F)(F)F)c2c(Oc3ncc(Cl)cn3)cccc21 (centres unmarked) [Compound 10]
2. O=C1OCc2cccc(Oc3ncc(Cl)cn3)c2C1CCCCC(F)(F)F (centres unmarked) [Compound 34]

Output:
1. 30
2. 0

----------
Test system: pigweed (Amaranthus retroflexus)
procedure text: Test A preemergence, pigweed
Format: in vivo
test parameters: Amaranthus retroflexus, pre-emergence, 240 h, 31 g ai/ha, 0 to 100 scale (0 no effect, 100 complete control), read-out: Plant response rating, Pigweed
// label = satisfied if pest or weed control at 31 g/ha is not less than 30%, otherwise not satisfied

Worked set:
>  <compound>
FC(F)(F)CC[C@H]1OCc2cccc(Oc3ncc(Cl)cn3)c21

>  <class name>
satisfied

$$$$
>  <compound>
O=C1Cc2cccc(Oc3ncc(Cl)cn3)c2C(CCCC(F)(F)F)O1 (stereo not drawn)

>  <class name>
satisfied

$$$$

Task: Entry O=C1OC(CCC(F)(F)F)c2c(Oc3ncc(Cl)cn3)cccc21 (stereo not drawn) : is its pest or weed control at 31 g/ha no less than 30%?
Output: satisfied

Task: Entry O=C1OCc2cccc(Oc3ncc(Cl)cn3)c2C1CCC(F)(F)F (stereo not drawn) : is its pest or weed control at 31 g/ha no less than 30%?
Output: not satisfied

Task: Entry FC(F)(F)CCCC1CCc2cccc(Oc3ncc(Cl)cn3)c21 (stereo not drawn) : is its pest or weed control at 31 g/ha no less than 30%?
Output: not satisfied

Task: Entry FC(F)(F)CCC1OCCc2cccc(Oc3ncc(Cl)cn3)c21 (stereo not drawn) : is its pest or weed control at 31 g/ha no less than 30%?
Output: not satisfied

Task: Entry O=C1NC(CCCC(F)(F)F)c2c(Oc3ncc(Cl)cn3)cccc21 (stereo not drawn) : is its pest or weed control at 31 g/ha no less than 30%?
Output: not satisfied

Task: Entry O=C1OCc2cccc(Oc3ncc(Cl)cn3)c2C1CCCCC(F)(F)F (stereo not drawn) : is its pest or weed control at 31 g/ha no less than 30%?
Output: not satisfied

----------
Kindly supply the reported pest or weed control at 31 g/ha values for the records listed here.
System: ryegrass, Italian (Italian ryegrass, Lolium multiflorum)
procedure text: Test A preemergence, ryegrass, Italian
Assay type: in vivo
test parameters: Lolium multiflorum, pre-emergence, 240 h, 31 g ai/ha, 0 to 100 scale (0 no effect, 100 complete control), read-out: Plant response rating, Ryegrass, Italian
Answers are plain numbers, in %.

A selection of reference data follows.
>  <molecule>
FC(F)(F)CC[C@H]1OCc2cccc(Oc3ncc(Cl)cn3)c21

>  <unit abbreviation>
%

>  <quantitative result>
10

$$$$
>  <molecule>
O=C1COC(CCCC(F)(F)F)c2c(Oc3ncc(Cl)cn3)cccc21 (stereo not shown)

>  <unit abbreviation>
%

>  <quantitative result>
0

$$$$
>  <molecule>
O=C1c2cccc(Oc3ncc(Cl)cn3)c2C1CCC(F)(F)F (stereo not shown)

>  <unit abbreviation>
%

>  <quantitative result>
0

$$$$
>  <molecule>
O=C1O[C@@H](CCCC(F)(F)F)c2c(Oc3ncc(Cl)cn3)cccc21

>  <unit abbreviation>
%

>  <quantitative result>
0

$$$$
>  <molecule>
O=C1NC(CCCC(F)(F)F)c2c(Oc3ncc(Cl)cn3)cccc21 (stereo not shown)

>  <unit abbreviation>
%

>  <quantitative result>
0

$$$$
>  <molecule>
O=C1Cc2cccc(Oc3ncc(Cl)cn3)c2C(CCC(F)(F)F)O1 (stereo not shown)

>  <unit abbreviation>
%

>  <quantitative result>
0

$$$$
>  <molecule>
O=C1OCc2cccc(Oc3ncc(Cl)cn3)c2C1CCC(F)(F)F (stereo not shown)

>  <unit abbreviation>
%

>  <quantitative result>
0

$$$$
>  <molecule>
O=C1OC(CCCCC(F)(F)F)Cc2c(Oc3ncc(Cl)cn3)cccc21 (stereo not shown)

>  <unit abbreviation>
%

>  <quantitative result>
0

$$$$

Could you report pest or weed control at 31 g/ha for every entry in the following list?
1. O=C1Cc2cccc(Oc3ncc(Cl)cn3)c2C(CCCC(F)(F)F)O1 (stereo not shown)
2. O=C1c2cccc(Oc3ncc(Cl)cn3)c2C1CCCC(F)(F)F (stereo not shown)
3. CCCC1OC(=O)Cc2cccc(Oc3ncc(Cl)cn3)c21 (stereo not shown)
4. FC(F)(F)CCCC1OCCc2cccc(Oc3ncc(Cl)cn3)c21 (stereo not shown)
5. FC(F)(F)CCCC1CCc2cccc(Oc3ncc(Cl)cn3)c21 (stereo not shown)

Output:
0
0
0
0
10

----------
System: kochia (Kochia scoparia)
procedure text: Test A preemergence, kochia
Type: in vivo
test parameters: Bassia scoparia, pre-emergence, 240 h, 125 g ai/ha, 0 to 100 scale (0 no effect, 100 complete control), read-out: Plant response rating, Kochia
measured endpoint: pest or weed control at 125 g/ha (%)
Numbers only, in %.

A selection of reference data follows.
>  <compound>
O=C1OCC(CCC(F)(F)F)c2c(Oc3ncc(Cl)cn3)cccc21 (centres unmarked)

>  <measured endpoint>
pest or weed control at 125 g/ha

>  <unit abbreviation>
%

>  <quantitative result>
70

$$$$
>  <compound>
O=C1c2cccc(Oc3ncc(Cl)cn3)c2C1CCCC(F)(F)F (centres unmarked)

>  <measured endpoint>
pest or weed control at 125 g/ha

>  <unit abbreviation>
%

>  <quantitative result>
80

$$$$
>  <compound>
FC(F)(F)CCCC1COc2cccc(Oc3ncc(Cl)cn3)c21 (centres unmarked)

>  <measured endpoint>
pest or weed control at 125 g/ha

>  <unit abbreviation>
%

>  <quantitative result>
0

$$$$
>  <compound>
CN1C(=O)c2cccc(Oc3ncc(Cl)cn3)c2C1CCCC(F)(F)F (centres unmarked)

>  <measured endpoint>
pest or weed control at 125 g/ha

>  <unit abbreviation>
%

>  <quantitative result>
0

$$$$

// next item, pest or weed control at 125 g/ha requested
Task: Hello, I am looking for reported pest or weed control at 125 g/ha with kochia (Kochia scoparia) for "O=C1O[C@@H](CCCC(F)(F)F)c2c(Oc3ncc(Cl)cn3)cccc21" . Could you help?
Output: 0
